Tested on: Escherichia coli (10536 strain)
assay-notes: 15 second contact suspension kill assay (Example 1 protocol, also Example 3)
Assay type: cell-based
measurement-parameters: 15 s contact; active concentrations (% w/v) as defined per example; 0 = complete kill; mean of triplicate
Description: The efficacies of antimicrobial agents can be usefully compared by determining the Minimum Biocidal Concentration (MBC). […] An overnight culture of Escherichia coli (10536 strain) was prepared in 50 ml total volume of TSB broth, grown for ca. 18 hrs at 37° C. and shaken at 150 rpm. […] Here, OD620 indicates the absorbance of a sample in a cuvette of 1.0 cm path length at a wavelength of 620 nm. […]
// values below are reported NMBS, mean bacterial survival
Give your result in log CFU/ml as a bare value.

Recorded results for 4 compounds are shown here.
compound	value-reported
CC1=CCC(C(C)(C)O)CC1 (stereo not drawn) [1:5, alpha-terpineol]	0
CCC(C)c1ccc(O)cc1 (stereo not shown) [1:27, 4-sec-butylphenol]	0
CCCc1ccc(O)cc1 [1:8, 4-n-propylphenol]	0
CCCCCc1ccc(O)cc1 [1:15, 4-n-pentylphenol]	0

Query: I'm curious: which NMBS, mean bacterial survival was measured for Oc1ccc(C2CCCC2)cc1 [1:36, 4-cyclopentylphenol] tested on Escherichia coli (10536 strain)?
Reply: 7.1

Query: # value lookup — system Escherichia coli (10536 strain), readout NMBS, mean bacterial survival, item Oc1ccccc1C1CCCC1 [1:31, 2-cyclopentylphenol]
Reply: 0

Query: What measured NMBS, mean bacterial survival is associated with CCCc1ccc(O)cc1 [1:9, 4-n-propylphenol] on Escherichia coli (10536 strain)?
Reply: 7.8

Query: Recall the recorded NMBS, mean bacterial survival for CC1=CCC(C(C)(C)O)CC1 (stereo not drawn) [1:7, alpha-terpineol] with Escherichia coli (10536 strain) and state it.
Reply: 7

Query: Find NMBS, mean bacterial survival (Escherichia coli (10536 strain)) for the entry CC(C)(C)c1ccccc1O [1:18, 2-tert-butylphenol]
Reply: 0

Query: # query: NMBS, mean bacterial survival | item Oc1ccc(C2CCCC2)cc1 [1:35, 4-cyclopentylphenol] | system: Escherichia coli (10536 strain)
Reply: 0

Query: Value wanted: NMBS, mean bacterial survival (Escherichia coli (10536 strain)) of entry CCC(C)c1ccc(O)cc1 (stereo not shown) [1:28, 4-sec-butylphenol]
Reply: 4.1

Query: Notebook entry, Escherichia coli (10536 strain) assay: NMBS, mean bacterial survival of CCC(C)c1ccccc1O (stereo not shown) [1:24, 2-sec-butylphenol] = ?
Reply: 0

Query: Query the reported NMBS, mean bacterial survival for Escherichia coli (10536 strain); item: CCC(C)c1ccccc1O (stereo not shown) [1:25, 2-sec-butylphenol]
Reply: 7.5

---

System: Escherichia coli (10536 strain)
assay-notes: 15 second contact suspension kill assay (Example 1 protocol, also Example 3)
Assay type: cell-based
measurement-parameters: 15 s contact; active concentrations (% w/v) as defined per example; 0 = complete kill; mean of triplicate
Parameter: NMBS, mean bacterial survival. Scope: all listed entries.
Give the value in log CFU/ml but do not write log CFU/ml after it.

Solved entries (count: 6):
compound	units-symbol	NMBS, mean bacterial survival
Oc1ccccc1C1CCCC1 [1:32, 2-cyclopentylphenol]	log CFU/ml	3.4
CC(C)(C)c1cccc(O)c1 [1:22, 3-tert-butylphenol]	log CFU/ml	7.6
CCCCc1ccc(O)cc1 [1:13, 4-butylphenol]	log CFU/ml	7.0
Oc1cccc(-c2ccccc2)c1 [3:3, 3-phenylphenol]	log CFU/ml	7.7
CCCCCc1ccc(O)cc1 [1:16, 4-pentylphenol]	log CFU/ml	6.6
Oc1ccccc1Cc1ccccc1 [1:41, 2-benzylphenol]	log CFU/ml	0

Query: Which NMBS, mean bacterial survival value belongs to Oc1cccc(-c2ccccc2)c1 [3:2, 3-phenylphenol] ?
Reply: 7.4

Query: Given the compound Oc1cccc(-c2ccccc2)c1 [3:1, 3-phenylphenol] , what is its reported NMBS, mean bacterial survival?
Reply: 4.3

Query: Given the entry CC(C)(C)c1ccccc1O [1:19, 2-tert-butylphenol] , report its measured NMBS, mean bacterial survival.
Reply: 7.5
